# TGT: DNA gyrase (Escherichia coli) (UniProt P0AES6+P0AES4)
# EXPERIMENTAL PROTOCOL: In vitro antibacterial activity against gram-positive organism Enterococcus faecium ATCC 8043
# Type: functional
QUANTITY MEASURED: MIC (µg/mL)

# MOLECULE, QUANTITY MEASURED, READING
records = [
    ("Cc1c(N2CCC(n3ccnn3)C2)c(F)cn2c(=O)c(C(=O)O)cc(C3CC3)c12 (stereo not given)", "MIC", 0.05),
    ("CNC1CCN(c2c(F)cn3c(=O)c(C(=O)O)cc(C4CC4)c3c2C)C1 (stereo not given)", "MIC", 0.1),
    ("NC1CCN(c2nc3c(C4CC4)cc(C(=O)O)c(=O)n3cc2F)C1 (stereo not given)", "MIC", 1.56),
    ("Cc1c(N2CCC(n3cccc3)C2)c(F)cn2c(=O)c(C(=O)O)cc(C3CC3)c12 (stereo not given)", "MIC", 0.1),
    ("Cc1c(N2C[C@@H]3CCN[C@@H]3C2)c(F)cn2c(=O)c(C(=O)O)cc(C3CC3)c12 (stereo in doubt; (S,S)45o)", "MIC", 0.1),
]

A: CCc1cc(C(=O)O)c(=O)n2ccc(N3CCC(N)C3)cc12.Cl (stereo not given)
B: Cc1c(N2C[C@H]3CCC[C@H](N)[C@H]3C2)c(F)cn2c(=O)c(C(=O)O)cc(C3CC3)c12
C: Cc1c(N2C[C@H]3CCCN[C@H]3C2)c(F)cn2c(=O)c(C(=O)O)cc(C3CC3)c12 (single isomer, unassigned)
D: CC(=O)N[C@H]1C[C@H](C)N(c2nc3c(-c4ccc(F)cc4F)cc(C(=O)O)c(=O)n3cc2F)C1
E: Cc1c(N2CC[C@@]3(C[C@H]3N)C2)c(F)cn2c(=O)c(C(=O)O)cc(C3CC3)c12
Prompt line: Put the items in order so that reported MIC rises from first to last. Output the labels ranked as instructed.
Response line: B, E, C, D, A

====

# TGT: DNA gyrase (Escherichia coli) (UniProt P0AES6+P0AES4)
# EXPERIMENTAL PROTOCOL: In vitro antibacterial activity against gram-negative organism Prov. stuartii CMX-640
# Type: functional
# MEASUREMENT PARAMETERS: Providencia stuartii
QUANTITY MEASURED: MIC

Some solved cases for reference:
# COMPOUND, READING
measured = [
    ("Cc1c(N2CC[C@@H]([C@@H](C)N)C2)c(F)cn2c(=O)c(C(=O)O)cc(C3CC3)c12", "0.78 pug ml-1"),
    ("NC1CCN(c2nc3c(-c4c(F)c(F)c(F)c(F)c4F)cc(C(=O)O)c(=O)n3cc2F)C1 (stereo not drawn)", "> 100 pug ml-1"),
]

// moving on: another record for MIC
Prompt line: If you can, please state the reported MIC value of O=C(O)c1cc(C2CC2)c2nc(N3CCOCC3)c(F)cn2c1=O .
Response line: > 100 µg/mL

====

# TGT: DNA gyrase (Escherichia coli) (UniProt P0AES6+P0AES4)
# EXPERIMENTAL PROTOCOL: In vitro antibacterial activity against gram-negative organism Klebsiella pneumoniae ATCC 8045
# Assay type: functional
QUANTITY MEASURED: MIC (µg/mL)

# COMPOUND, UNIT OF MEASUREMENT, READING
measured = [
    ("O=C(O)c1cc(C2CC2)c2nc(N3CCNCC3)c(F)cn2c1=O", "µg/mL", 0.05),
    ("Cc1c(N2CC[C@@H](O)C2)c(F)cn2c(=O)c(C(=O)O)cc(C3CC3)c12", "µg/mL", 0.02),
    ("O=C(O)c1cc(-c2ccc(F)cc2F)c2nc(N3CCC(O)C3)c(F)cn2c1=O (stereo not given)", "µg/mL", 0.05),
]

P: CNC1CCN(c2c(F)cn3c(=O)c(C(=O)O)cc(C4CC4)c3c2C)C1 (stereo not given)
Q: NC1CCN(c2c(F)cn3c(=O)c(C(=O)O)cc(C4CC4)c3c2Cl)C1 (stereo not given)
R: Cc1c(N2CC[C@H]([C@@H](C)N)C2)c(F)cn2c(=O)c(C(=O)O)cc(C3CC3)c12
Prompt line: Rank descending by MIC. Output the labels ranked as instructed.
Response line: Q, R, P
(Q: 0.05 µg/mL, R: 0.01 µg/mL, P: 0.005 µg/mL)

a: Cc1c(N2C[C@H]3CCC[C@@H](N)[C@H]3C2)c(F)cn2c(=O)c(C(=O)O)cc(C3CC3)c12
b: Cc1c(F)c(N2CCC(N)C2)cc2c(C3CC3)cc(C(=O)O)c(=O)n12 (stereo not given)
c: Cc1c(N2C[C@@H]3CCCN[C@@H]3C2)c(F)cn2c(=O)c(C(=O)O)cc(C3CC3)c12 (stereo in doubt; (S,S)45n)
Prompt line: Put the items in order so that reported MIC rises from first to last. Output the labels ranked as instructed.
Response line: c, a, b
